Every entry's value here was drawn from paper PMC9492657.

assayed.system: T1, R5 NDD-His-tag (N-terminal docking domain of RapB, rapamycin polyketide synthase) (Streptomyces rapamycinicus)
T1 chain: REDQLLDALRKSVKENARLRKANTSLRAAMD
assay.comment: BLI; GatorPrime; NDD-His-tag (100 ug/mL in PBS) immobilised on a Ni-NTA biosensor; CDD in solution at variable concentrations in 1x kinetic buffer (PBS pH 7.4, 0.1% BSA, 0.05% Tween 20); 1:1 global model; three repeats
conditions.used: both partners purified
experimental.endpoint: Kd
Give the value; after it, write the unit.

### Prompt Find the recorded Kd belonging to Flag-tag-R4 CDD (C-terminal docking domain of RapA, rapamycin polyketide synthase) (domain or fragment) FAPAEPEPRLHEQELRRALAGISIDKFREAGVLDTLLRLAAMEGLAVPKPDSESDDEAFVDEMDADALIKHVLEEER and report it.
### Response 340 nM
